Cited source for all entries: paper PMC9951844

- measurement_target: SARS-CoV-2 Kappa (B.1.617.1) spike ECD (SARS-CoV-2 Kappa (B.1.617.1), strain)
value_kind: binding result

# binder YB12-203 (antibody, V domains shown) VH: QIQLQQSGPGLVEPSQTLSLTCAISGDSVSSISAAWNWIRQSPSRGLEWLGRTYYRSKWYNDYAVSVKSRITINPDTSKNQFSLHLNSVTPEDTAVYYCARDHLRWDIVATSLEAFDIWGQGTMVTVSS VL: DIVMTQSPDSLAVSLGERATINCKSSQSVLFSSNNKNSLAWYQQKPGQPPKLLIYWASTRESGVPDRFSGSGSGTDFTLTISSLQAEDVAVYYCQQYHSSLLYTFGQGTKLEIK ; its binding result = binds

# binder YB13-275 (antibody, V domains shown) V domain 1: QITLKESGPRLVKPTQTLTLTCTFSGFSLATAGMSVGWIRQPPGKALEWLALIYWDDDDRYSPSLKSRLTITKDTSRNQVVLTMTNMDPVDTATYYCIHPRFYSDPSGYYFIWGQGTMVTVSS V domain 2: SYELTQPPSVSVSPGQTARITCSGDALAKQYAYWYQQKPGQAPVQVMYKDGERPSGIPERFSGSKSGTTVTLTISAVQAEDEADYFCQSADNSGFYVFGTGTQVTVL ; its binding result = binds
